Tested on: anti-CD28 scFv
Assay: Phage binding ELISA (panning) of clonal phage on anti-CD28 scFv, with or without CD28 soluble protein
Details: clonal phage supernatant; background signal
QUANTITY MEASURED: Phage binding ELISA Backgroud signal
One number for each entry.

As a guide, the following entries are already answered.
Phage-338 (MDWCPRFLWNECFY) : 0.143
Phage-175 (MDWCPAYLWAECFS) : 0.082
Phage-342 (MDWCPRNLWHECFA) : 0.067
Phage-43 (MDWCPRALWHECFY) : 0.115

Hi there! I need Phage binding ELISA Backgroud signal for each item below, if you can.
1. Phage-316 (MDWCPRSLWNYCFA)
2. Phage-239 (MDWCPRYLWHVCFN)

[0.067, 0.187]

So what does the record say about Phage binding ELISA Backgroud signal for Phage-192 (DVWCPKYMWSLCFN) ?
0.101

###

Test system: anti-CD28 scFv
Test: Phage binding ELISA (panning) of clonal phage on anti-CD28 scFv, with or without CD28 soluble protein
Settings: clonal phage supernatant; background (no anti-CD28 scFv signal)
QUANTITY MEASURED: Phage binding ELISA Backgroud signal
Answers are plain numbers.

Phage-450 (EDWCPTDVWPYCFS) : 0.100
Phage-445 (MDWCPRARWHDCFF) : 0.097
Phage-388 (MDWCPRFMWNFCFF) : 2.200
Phage-426 (MFLCPSAMWNRCFY) : 0.069
Phage-413 (MDWCPSDMWSNCFN) : 0.070

Hi there! I need Phage binding ELISA Backgroud signal for each item below, if you can.
1. Phage-437 (MDWCPVDRWADCFN)
2. Phage-441 (MDWCPRDRWDDCFF)
3. Phage-410 (IDWCPRYMWHECFF)
4. Phage-419 (VDWCPAHMWNECYN)

[0.071, 0.114, 0.098, 0.208]

Hi there! I need Phage binding ELISA Backgroud signal for each item below, if you can.
1. Phage-435 (MDWCPRDRWVDCYA)
2. Phage-396 (TDWCPRDMWYLCFN)

1: 0.157; 2: 0.082

###

Can you tell me Phage binding ELISA Backgroud signal for the items I'm about to list?
System: anti-CD28 scFv
Assay: Phage binding ELISA (panning) of clonal phage on anti-CD28 scFv, with or without CD28 soluble protein
Conditions: clonal phage supernatant; background signal
Give bare numbers.

As a guide, the following entries are already answered.
Phage-63 (MDWCPRALWAECFN) : 0.068
Phage-314 (MDWCPIHLWNECFN) : 0.074
Phage-235 (MDWCPRYLWHECFS) : 0.063

Hi there! I need Phage binding ELISA Backgroud signal for each item below, if you can.
1. Phage-54 (MNWCPRDMWYQCFN)
2. Phage-317 (MDWCPRHLWHECFT)
3. Phage-262 (MYWCATSMWNRCFV)
4. Phage-329 (MDWCPRALWNVCFA)
5. Phage-69 (MDWCPIHMWADCFA)
6. Phage-351 (MDWCPMNLWHECFA)

0.068
0.103
0.248
0.071
0.065
0.080

###

Test system: anti-CD28 scFv
Assay: Phage binding ELISA (panning) of clonal phage on anti-CD28 scFv, with or without CD28 soluble protein
Conditions: Phage binding ELISA; clonal phage supernatant, background wells
Grouping rule (Backgroud signal): interval 1: < 0.07; interval 2: ≥ 0.07 and < 0.09; interval 3: ≥ 0.09

These recorded examples may help you get a feel for the data.
Phage-92 (MDWCPRHLWHECFF) : interval 3
Phage-100 (MDWCPRYLWTECFN) : interval 1
Phage-130 (MDWCPRYLWDACFF) : interval 1
Phage-109 (MDWCPKNLWHVCFN) : interval 2
Phage-90 (MDWCPIDLWHLCFY) : interval 1

Field: next substance
Band for the recorded Backgroud signal of Phage-93 (MDWCPRYLWTVCFS) ?
interval 3
